- System: RPMI-8226 leukemia
- assay.text: NCI tumour cell line growth inhibition, 48 h
Assignment: determine reported TGI for the given molecules.

The reported TGI of the molecule O=C1CCCC2=C1CC1=C(CCCC1=O)N2c1ccc(Cl)cc1 was > 100 µM

The reported TGI of the molecule N#CN1CC[C@@H]2CC3(CCC2C1)OCCO3 (stereo partly specified) was > 100 µM

The reported TGI of the molecule Nc1nc(N)nc(CCCCc2nc(N)nc(N)n2)n1 was > 100 µM

The reported TGI of the molecule O=C(NCCCN1CCN(CCCNC(=O)c2cccc3ccccc23)CC1)c1cccc2ccccc12 was > 100 µM

The reported TGI of the molecule O=C1C=C(NCCc2ccc(O)c([N+](=O)[O-])c2)C(=O)c2[nH]cnc21 was > 100 µM

The reported TGI of the molecule CCN(CC)CCC(=O)/C=C/c1ccc(Cl)c(Cl)c1 was 0.603 µM
